Items are presented alongside their recorded MIC.
System: Klebsiella pneumoniae
TEST SUMMARY: Antimicrobial activity against carbapenem-resistant Klebsiella pneumoniae ZR01 from patient sputum by agar dilution method
Assay type: functional
OBSERVATION TYPE: MIC

- C[C@@H](O)[C@H]1C(=O)N2C(C(=O)O)=C(S[C@@H]3CN[C@H](C(=O)Nc4cccc(C(=O)O)c4)C3)[C@H](C)[C@H]12: > 256 µg/mL
- NCC[C@H](O)C(=O)N[C@@H]1C[C@H](N)[C@@H](O[C@H]2O[C@H](CN)[C@@H](O)[C@H](O)[C@H]2O)[C@H](O)[C@H]1O[C@H]1O[C@H](CO)[C@@H](O)[C@H](N)[C@H]1O: > 256 µg/mL
- O=C(O)c1cn(C2CC2)c2cc(N3CCNCC3)c(F)cc2c1=O: > 32 µg/mL
- C[C@@H](O)[C@H]1C(=O)N2C(C(=O)O)=C(S[C@@H]3CN[C@H](C(=O)N(C)C)C3)[C@H](C)[C@H]12: > 32 µg/mL
- CO/N=C(\C(=O)N[C@@H]1C(=O)N2C(C(=O)O)=C(COC(C)=O)CS[C@H]12)c1csc(N)n1: > 256 µg/mL
- CO/N=C(\C(=O)N[C@@H]1C(=O)N2C(C(=O)O)=C(CSc3nc(=O)c(O)nn3C)CS[C@H]12)c1csc(N)n1: > 256 µg/mL
